B1: PRPH (parent)
chain: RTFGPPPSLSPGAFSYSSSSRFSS

# Variants of: B1
# EXPERIMENT NOTES: protein stability index of a GFP-peptide fusion (GPS, HEK-293T) (PSI 1-6); higher = more stable;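 further: lentivirally expressed fusions sorted by FACS into six bins by GFP to DsRed ratio, PSI derived from sequencing read proportions per bin multiplied by bin number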
# CONDITION DESCRIPTION: c terminus: a fixed tail appended
Measured protein stability index values are reported for all entries that follow.
Answer as a number with no unit attached.

Use the examples below as a reference point.
1) P5K | 2.99
2) R21L | 2.56
3) Y16P | 4.1
4) P11Q | 3.38
5) F3A | 3.33
6) S18I | 2.66

# input I have this variant here, "S24H" , and I need its recorded protein stability index.
# output 3.55
